I'd be grateful if you could share measured metabolites observed in cellular extracts (% of total radioactivity) for these entries.
# System: rat primary hepatocytes
# experiment.description: Metabolic disposition of [^14C]-Compound 1 and [^14C]-2′-C-methyl guanosine in rat primary hepatocytes (incubation medium, cellular extracts, nucleotide levels)
# Type: in vitro ADME, Sprague Dawley rat
# recorded.conditions: rat hepatocytes (Rs458), 1 μM [^14C]-Compound 1, 1 h
Numbers only, in %.

Worked examples, 2 molecules total:
molecule=C[C@@]1(O)[C@H](O)[C@@H](COP(=O)(O)O)O[C@H]1n1cnc2c(=O)[nH]c(N)nc21 target="rat primary hepatocytes" reading_unit=% numeric_result=3.74
molecule=C[C@@]1(O)[C@H](O)[C@@H](COP(=O)(O)OP(=O)(O)O)O[C@H]1n1cnc2c(=O)[nH]c(N)nc21 target="rat primary hepatocytes" reading_unit=% numeric_result=13.0

Quick check: metabolites observed in cellular extracts (% of total radioactivity) of C[C@@]1(O)[C@H](O)[C@@H](CO)O[C@H]1n1cnc2c(=O)[nH]c(N)nc21 [2′-C-methyl guanosine, 9-(2-C-methyl-β-D-ribofuranosyl)guanine, reference compound] ?
1.01

All values here come from patent US20100003217A1.
